- Tgt: IDO1 (Homo sapiens)
- Construct: HeLa cells were treated with a test compound in the presence of IFNγ, which induces IDO1 expression; endogenous in cells
- Assay Summary: Cell-Based (HeLa) Assay for Measurement of IDO1 Inhibition
- Experimental Conditions: H1-HeLa cells, IDO1 induced with IFNγ, 48 hour incubation, kynurenine in supernatant (absorbance 480 nm); geometric mean of minimum four determinations
Reported Endpoint: pEC50
Expect pEC50 as a plain number equal to -log10 of the molar concentration.

(Q) Quick check: pEC50 of O=C(Nc1ccc(F)cc1)c1cc(-c2cccn3c(-c4cccc(F)c4F)cnc23)ncc1C(F)(F)F ?
(A) 5.62

(Q) Try this compound next: Cc1ccc(-c2cccn3c(-c4cccc(F)c4F)cnc23)nc1C(=O)Nc1ccc(F)cc1
(A) 6.77

(Q) Try this compound next: O=C(Nc1ccc(F)cc1)c1cc(-c2cccn3c(-c4cccnc4)c(CO)nc23)ccc1C(F)(F)F
(A) 7.05

###

- Tgt: IDO1 (Homo sapiens, UniProt P14902)
- Construct: HeLa cells were treated with a test compound in the presence of IFNγ, which induces IDO1 expression; endogenous in cells
- Sequence (P14902 whole entry): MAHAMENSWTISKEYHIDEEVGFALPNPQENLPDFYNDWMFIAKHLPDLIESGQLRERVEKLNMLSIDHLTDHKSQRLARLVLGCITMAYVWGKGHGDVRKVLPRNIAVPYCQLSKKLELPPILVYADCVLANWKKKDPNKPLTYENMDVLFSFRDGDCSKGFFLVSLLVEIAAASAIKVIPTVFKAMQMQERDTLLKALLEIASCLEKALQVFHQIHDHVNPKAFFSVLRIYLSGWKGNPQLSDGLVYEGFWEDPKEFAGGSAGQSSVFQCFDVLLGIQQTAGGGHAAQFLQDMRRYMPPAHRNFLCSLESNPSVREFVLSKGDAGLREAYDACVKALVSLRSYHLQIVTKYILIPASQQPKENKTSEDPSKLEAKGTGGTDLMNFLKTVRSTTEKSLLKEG
- Assay Summary: Cell-Based (HeLa) Assay for Measurement of IDO1 Inhibition
- Experimental Conditions: H1-HeLa cells, IDO1 induced with IFNγ, 48 hour incubation, kynurenine in supernatant (absorbance 480 nm); geometric mean of minimum four determinations
Hi there, I'd appreciate the recorded EC50 for every entry that follows.
Respond with the bare value in nM.

(Q) Quick check: EC50 of Cc1nc2c(-c3ccc(C(F)(F)F)c(C(=O)Nc4ccc(F)cc4)c3)cccn2c1-c1cccnc1 [Example 18] ?
(A) 165

(Q) Try this compound next: Cc1ncc(-c2cccn3c(-c4cccc(F)c4F)cnc23)cc1C(=O)Nc1ccc(F)cc1 [Example 12]
(A) 403

(Q) Try this compound next: Cc1ccc(-c2cccn3c(-c4cccc(F)c4F)c(C)nc23)cc1C(=O)Nc1ccc(F)cc1 [Example 11]
(A) 436

(Q) Try this compound next: Cc1ccc(-c2cccn3c(-c4ccccc4)cnc23)cc1C(=O)Nc1ccc(F)cc1 [Example 17]
(A) 168
